FYI, the data here is from the supplement of paper PMC10567573.

B1: SMG5 (parent)
chain: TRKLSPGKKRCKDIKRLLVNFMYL

Variants of: B1
assay-details: protein stability index of a GFP-peptide fusion (GPS, HEK-293T) (PSI 1-6); higher = more stable;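 also: lentivirally expressed fusions sorted by FACS into six bins by GFP to DsRed ratio, PSI derived from sequencing read proportions per bin multiplied by bin number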
test-parameters: c terminus: a fixed tail appended
The label depends only on protein stability index: criterion met if it is at least 2, criterion not met if it is smaller.

See these solved cases before continuing.
variant-id: K15G
assigned-category: criterion not met
//
variant-id: I14A
assigned-category: criterion met
//
variant-id: C11D
assigned-category: criterion not met
//
variant-id: L18F
assigned-category: criterion met
//
variant-id: F21R
assigned-category: criterion not met

Input: Check the entry `R2C` : does protein stability index equal or exceed 2?
Output: criterion met

Input: Check the entry `K3P` : does protein stability index equal or exceed 2?
Output: criterion met

Input: Check the entry `K9S` : does protein stability index equal or exceed 2?
Output: criterion met

Input: Check the entry `R2A` : does protein stability index equal or exceed 2?
Output: criterion met

Input: Check the entry `R10P` : does protein stability index equal or exceed 2?
Output: criterion met
